Below, each of the molecules is paired with its reported MIC90 value.
System: Mycobacterium tuberculosis variant bovis BCG
experiment: microbe, parasite or virus in culture
Assay type: functional
result-type: MIC90

1. Cc1ccc2nc(C(F)(F)F)c(C(=O)NCc3ccc4c(c3)OCO4)n2c1 | 1.8 µM
2. O=C(CCc1cc2ccccc2o1)NNC(=O)c1cccs1 | 5.1 µM
3. O=C(C=Cc1cccs1)N1CCN(Cc2ccc(Br)s2)CC1 | 2.8 µM
4. O=C(CCc1nc2ccccc2oc1=O)N[C@@H]1CCC(=O)N[C@H]1c1ccsc1 | 6.4 µM
5. Cc1ccccc1CN1CCC(O)(c2ccc(Cl)c(C(F)(F)F)c2)CC1 | 4.3 µM
6. N[C@H]1CC[C@H](NCc2ccc(O)c(C(=O)NCc3ccc(Cl)c(Cl)c3)c2)CC1 | 8.5 µM
7. C=CCNc1nc(SC)nc2ccccc12 | 4.4 µM
8. O=C(NCc1ccc(Oc2ccccc2)cc1)c1c(C(F)(F)F)nc2ccccn12 | 0.2 µM
9. CN1CCc2c(cccc2NC(=O)c2cc(Br)cc3c2OCC3)C1 | 9.8 µM
10. CC(=O)Nc1cc(C(=O)Nc2ccc(C3=NCCN3)cc2)ccc1C(=O)Nc1ccc(C2=NCCN2)cc1 | 1.6 µM

* * *

Test system: Mycobacterium tuberculosis variant bovis BCG
experiment: microbe, parasite or virus in culture
Type: functional
Measured MIC90 by item
result-type: MIC90 (µM)

1) CCOc1ccc(NC(=O)N(C2CCCCC2)C(C)c2cccnc2)cc1 (centres undefined) | 7.2
2) Cc1ccc(Cl)cc1Oc1ccncc1CNc1ccccc1S(C)(=O)=O | 7.1
3) O=C(C=Cc1ccco1)N1CCN(Cc2ccc3c(c2)OCO3)CC1 | 7
4) COc1ccc(-c2ccc(Nc3cccc(S(=O)(=O)CCNCCn4nc(C)cc4C)c3)nc2)cn1 | 6.9

* * *

System: Mycobacterium tuberculosis variant bovis BCG
experiment: microbe, parasite or virus in culture
Assay type: functional
Decision: MIC90 beneath 6 µM gives True; MIC90 meeting or exceeding 6 µM gives False.

1) O=C(Nc1ccc(F)c(Cl)c1)c1cnc(N2CCN(c3ncccn3)CC2)c2ccccc12 | False
2) Cc1ccc(NC(=O)CCC(=O)NNC(=O)c2cccs2)cc1C | False
3) CCCc1cc(=O)[nH]c(-n2nc(C)cc2NC(=O)c2cc3ccccc3o2)n1 | True
4) COc1cc(C(=O)Nc2nc(-c3ccccn3)cs2)ccc1OCC(C)C | False
5) O=C(O)C(F)(F)F.c1ccc(C[C@H]2CN(c3nccc(Oc4ccc(-n5ccnc5)cc4)n3)CCN2)cc1 | False
6) CCN(CC)CCCn1c(Sc2ccnc(N3CCN(c4ccncc4)CC3)n2)nnc1-c1ccco1 | True
7) O=C(NNC(=O)c1cc2cc([N+](=O)[O-])ccc2s1)c1cccs1 | False
8) COc1cccc(-c2nc3c(N4CCCC4)cccc3n2CC2CCCN2)n1.O=C(O)C(F)(F)F (stereo not drawn) | True
9) CCCCOc1ccc(C(=O)Nc2nc(-c3ccccn3)cs2)cc1OCC | True
10) COc1cccc(C(=O)Nc2nc(-c3ccccn3)cs2)c1 | False
11) O=S(=O)(NCC1CCCO1)c1ccc(-c2ccc(CN3CCOCC3)cc2)s1 (stereo not drawn) | True
12) Brc1ccc(-c2noc(C3CCCNC3)n2)cc1 (stereo not drawn) | False
13) COCCCNCCOc1ccc2ccccc2c1Br | False
14) c1ccc(-c2ccc(CNCCn3ccnc3-c3ccccc3)cc2)cc1 | False
15) Cc1ccc(-c2nnc(C)c(N3CCCC3)n2)cc1 | False
16) O=c1cc(N2CCCNCC2)c(Cl)nn1CCCNS(=O)(=O)c1cccc(-c2ccccc2)c1 | True
17) CC1CCCC(NC(=O)Nc2ccc3snnc3c2)C1C (stereo not drawn) | True
18) CC(c1nc2ccccc2s1)N(C)C(=O)c1cccc(NC(=O)c2cccs2)c1 (stereo not drawn) | True
19) COc1ccc(-c2cc3nccc(C4CCCNC4)n3n2)cc1 (stereo not drawn) | False
20) CN(C)CCCSc1nc(N2CCCC2)c2c(c1C#N)CCCC2 | False
21) O=c1oc(-c2ccccc2F)nc2scc(-c3ccccc3)c12 | True
22) O=C(COCC(=O)Nc1nc(-c2ccccn2)cs1)Nc1nc(-c2ccccn2)cs1 | True
23) O=C(Nc1nc(-c2ccccn2)cs1)c1cc2c(F)cccc2s1 | True
24) COc1ccc(-c2cnc(Nc3cccc(S(=O)(=O)CCN4CCc5ccccc5C4)c3)nc2)cn1 | True
25) c1ncn(-c2ccc(COc3ccc(-n4cncn4)cc3)cc2)n1 | False
26) CCc1ccc(C2CC(C(F)(F)F)n3ncc(C(=O)NCc4ccc5c(c4)OCO5)c3N2)cc1 (stereo not drawn) | True
27) Cc1cc(OCC(=O)NCc2ccccc2)c2cc(Br)ccc2n1 | True
28) COc1ccc(O)c(C(=O)c2cnn(C(=O)c3cccs3)c2)c1 | True
29) Cc1ccc(-c2ccc(SCC(=O)Nc3nonc3C)nn2)cc1 | False
30) Cc1ccc(C(=O)Nc2nc(-c3ccccn3)cs2)s1 | True
31) O=C(/C=C/c1ccc(C(F)(F)F)cc1F)NC1CCN(c2ncccc2C(F)(F)F)CC1 | True
32) CC(=O)N1CCN(Cc2ccc(-c3ccc(NS(=O)(=O)c4ccc(C)cc4)cc3)cc2)CC1 | False

* * *

MIC90 values, listed per item
System: Mycobacterium tuberculosis variant bovis BCG
experiment: microbe, parasite or virus in culture
Assay type: functional
result-type: MIC90 (µM)

1. Cc1nnc(SCC(=O)NNC(=O)c2ccco2)nc1O | 3
2. CCCCc1ccc(C(=O)Nc2nccc3ccccc23)nc1 | 7.2
3. O=C(Nc1nnc(-c2ccccc2)o1)c1cccc(C(F)(F)F)c1 | 3.6
4. Cc1ccc(-n2ncc3c(SCC(=O)NNC(=O)c4ccco4)ncnc32)cc1 | 3.6
5. O=C(CSc1ccc(Cl)cc1)NNC(=O)c1cccs1 | 4.8
6. CC(C)(C)c1ccc(C(=O)Nc2nnc(-c3ccco3)o2)cc1 | 4.3
7. c1ccc(Nc2nc(-c3ccccn3)cs2)nc1 | 0.9
8. O=C(NNC(=O)c1[nH]nc2ccccc12)c1ccco1 | 8.3
9. CCC(Sc1nc2ccccc2o1)C(=O)Nc1nccs1 (centres undefined) | 5.7
10. Cc1ccc(SCCNC(=O)c2c(-c3ccccc3)noc2C)cc1 | 8.7
11. COc1ccc(CCNC(=O)c2c(C)nc3ccccn23)cc1 | 6.9
12. CCCc1cc(=O)[nH]c(-n2nc(C)cc2NC(=O)CC(c2ccccc2)c2ccccc2)n1 | 7.5
13. O=C(Nc1nnc(-c2ccc(Cl)s2)o1)c1ccc(Cl)s1 | 7.5
14. O=C(CNc1ccccc1Nc1ccccc1)N1CCCC1 | 8.2
15. CN(C)c1ccc(NC(=O)Nc2cnsn2)cc1 | 3.2
16. O=C(Nc1nc(-c2ccccn2)cs1)c1cccc(-n2cnnn2)c1 | 8.5
17. CCc1nnc(NC(=O)c2cccc(C(=O)Nc3nnc(CC)s3)n2)s1 | 1.5
18. COc1cc2ccccc2cc1C(=O)NCc1cccc(-c2ccccc2OC)c1 | 3.6
19. Nc1cc(OCc2ccccc2)ccc1Nc1ccccc1 | 2.1

* * *

System: Mycobacterium tuberculosis variant bovis BCG
experiment: microbe, parasite or virus in culture
Type: functional
result-type: MIC90 (µM)

1) CCCCS(=O)(=O)Nc1ccc2cnn(C)c2c1 | 0.5
2) FC(F)(F)c1ccc2c(N3CCCNCC3)ncc(-c3ccccc3)c2n1 | 4.8
3) FC(F)(F)c1ccc2c(N3CCCNCC3)ncc(-c3ccsc3)c2n1 | 1.8
4) Cc1cc(C(=O)Nc2nc(C)c(C)s2)c2c(C)nn(C(C)C)c2n1 | 5.5
5) COc1ccc(S(=O)(=O)Nc2ccccc2Nc2ccc(C)cc2)cc1 | 2.8
6) CC(C)CCN(c1ccc(C#N)c(Cl)c1)[C@H]1CCNC1 | 2
7) CCc1c(C)nc(-n2nc(C)cc2NC(=O)COc2ccccc2F)[nH]c1=O | 2.8
8) COc1cc(Cc2cnc(N)nc2N)c2cnccc2c1N(C)C | 6.4
9) Cc1cc(/C=C/c2cccc(C(=O)O)c2)cc(Cl)c1OC[C@@H]1CCCN1C | 9.5
10) O=C(N[C@@H](Cc1ccccc1)C(=O)Nc1ccccc1N1CCOCC1)c1cccs1 | 3.2
11) c1cc(Oc2ccnc(N3CCC4(CCNC4)CC3)n2)c2cc[nH]c2c1 | 7.5
12) CN(C)c1ccc(NC(=O)Nc2cccc3ncccc23)cc1 | 9.8
13) Cc1ccc(C)c(-c2nnc(NC(=O)c3ccc4c(c3)CCCC4)o2)c1 | 3
14) O=C(Nc1nc(-c2ccccn2)cs1)c1cncn1-c1ccccc1 | 4.9
15) c1ccc(Cc2nnc(Sc3ccnc(N4CCN(c5ccncc5)CC4)n3)n2CCN2CCOCC2)cc1 | 9.9
16) Fc1cccc(Sc2nccc(N3CCNCC3)n2)c1 | 6
17) O=C(Nc1nc(-c2ccccn2)cs1)c1ccc2c(c1)CCCC2 | 6.8
18) Cc1cccc(-c2noc(CNC(=O)c3ccccc3CCc3ccccc3)n2)c1 | 6.1
19) O=C(Nc1nc(-c2ccccn2)cs1)c1cccc(S(=O)(=O)N2CCCCC2)c1 | 5.2
20) Cc1cc(CN2CC[C@H](NC(=O)c3ccc(Cl)c(Cl)c3)C2)ccc1OCCN1CCNCC1 | 7.1
21) C=Cn1cccc1C(=O)N1CCCC(n2cnc3sc(C)c(CC)c3c2=O)C1 (centres undefined) | 7.3
22) O=C(c1cc2ccccc2o1)N1CCN(Cc2ccc3c(c2)OCO3)CC1 | 2.7
23) CC1(C)NC(N)=NC(=N)N1OCCCOc1ccc2ccccc2c1 | 9.5
24) Cc1nn(Cc2ccccc2)c(Cl)c1C(=O)NC1CCCCCC1 | 3.2
